# Test Name: Antioxidant activity assessed as DPPH free radical scavenging activity by measuring reducing activity at 100 uM after 20 mins by spectrophotometry
# Assay type: physicochemical
# Design: scale not given: the % may be the effect or the level left
Measured Quantity: Activity (%)
Answers are plain numbers, in %.

Consider the reported Activity for these compounds:
[
  {
    "Compound": "CC(C)(C)OC(=O)NCCCN(CCCCN(CCCNC(=O)CC1c2cccc(O)c2C(=O)c2c(O)cccc21)C(=O)OC(C)(C)C)C(=O)OC(C)(C)C",
    "Measured Value": 29
  },
  {
    "Compound": "CC(C)(C)OC(=O)NCCCCNC(=O)CC1c2cccc(O)c2C(=O)c2c(O)cccc21",
    "Measured Value": 33
  }
]

Can you give me Activity for all of these, one by one?
1. COc1ccc(C(NC(=O)CC2c3cccc(O)c3C(=O)c3c(O)cccc32)c2ccc(OC)cc2)cc1
2. NCCCCNC(=O)CC1c2cccc(O)c2C(=O)c2c(O)cccc21.O=C(O)C(F)(F)F

1: 86; 2: 65

---

# Test Name: Antioxidant activity assessed as increase of DPPH free radical scavenging activity by measuring reducing activity at 100 uM after 60 mins by spectrophotometry
# Type: physicochemical
# Condition Details: 1 h
Measured Quantity: Activity

[
  {
    "Molecule": "NCCCCN(CCCN)C(=O)CC1c2cccc(O)c2C(=O)c2c(O)cccc21.O=C(O)C(F)(F)F.O=C(O)C(F)(F)F",
    "Measured Value": "Not Active"
  },
  {
    "Molecule": "COc1ccc(CNC(=O)CC2c3cccc(O)c3C(=O)c3c(O)cccc32)cc1OC",
    "Measured Value": "Not Active"
  },
  {
    "Molecule": "NCCCNCCCCNCCCN [SPERMINE]",
    "Measured Value": "Not Active"
  },
  {
    "Molecule": "COc1ccc(C(NC(=O)CC2c3cccc(O)c3C(=O)c3c(O)cccc32)c2ccc(OC)cc2)cc1",
    "Measured Value": "Active"
  },
  {
    "Molecule": "NCCc1ccc(O)c(O)c1 [DOPAMINE]",
    "Measured Value": "Not Active"
  }
]

For the 7 molecules below, give their Activity values.
1. CCCCNC(=O)CC1c2cccc(O)c2C(=O)c2c(O)cccc21
2. COc1ccc(C(NC(C)=O)c2ccc(OC)cc2)cc1
3. O=C1c2c(O)cccc2Cc2cccc(O)c21 [ANTHRALIN]
4. CCOC(=O)CC1c2cccc(O)c2C(=O)c2c(O)cccc21
5. NCCCNCCCCNCCCNC(=O)CC1c2cccc(O)c2C(=O)c2c(O)cccc21.O=C(O)C(F)(F)F.O=C(O)C(F)(F)F.O=C(O)C(F)(F)F
6. CCCCCCCCCCCCNC(=O)CC1c2cccc(O)c2C(=O)c2c(O)cccc21
7. NCCCCNC(=O)CC1c2cccc(O)c2C(=O)c2c(O)cccc21.O=C(O)C(F)(F)F

1. Active
2. Not Active
3. Active
4. Active
5. Not Active
6. Not Active
7. Not Active

---

Answer each item with its documented viability at 48 h, 0.01 µM.
# Test Name: Cytotoxicity against human HaCaT cells assessed as cell survival at 0.01 uM after 48 hrs by MTT assay (reference value: 100%)
# Type: cell-based
# Condition Details: read-out: Survival
Give bare numbers, in %.

[
  {
    "Mol": "COc1ccc(C(NC(=O)CC2c3cccc(O)c3C(=O)c3c(O)cccc32)c2ccc(OC)cc2)cc1",
    "viability at 48 h, 0.01 µM [%]": 79.8
  }
]

For each of the items listed, what is its viability at 48 h, 0.01 µM?
1. COc1ccc(CNC(=O)CC2c3cccc(O)c3C(=O)c3c(O)cccc32)cc1OC
2. O=C(CC1c2cccc(O)c2C(=O)c2c(O)cccc21)NCCc1ccc(O)c(O)c1

1: 18.5; 2: 91.1

---

# Test Name: Cytotoxicity against human HaCaT cells assessed as cell survival at 100 uM after 48 hrs by MTT assay (reference value: 88.07 +/- 9.81%)
# Format: cell-based
# Condition Details: read-out: Survival
Give measured viability at 48 h, 100 µM for each item. Keep answers brief.
Numbers only, in %.

// worked examples, viability at 48 h, 100 µM included
[
  {
    "Molecule": "O=C(CC1c2cccc(O)c2C(=O)c2c(O)cccc21)NCCc1ccc(O)c(O)c1",
    "Measured Value": 2.98
  },
  {
    "Molecule": "CCCCNC(=O)CC1c2cccc(O)c2C(=O)c2c(O)cccc21",
    "Measured Value": 13.7
  },
  {
    "Molecule": "COc1ccc(CNC(=O)CC2c3cccc(O)c3C(=O)c3c(O)cccc32)cc1OC",
    "Measured Value": 0
  },
  {
    "Molecule": "COc1ccc(C(NC(=O)CC2c3cccc(O)c3C(=O)c3c(O)cccc32)c2ccc(OC)cc2)cc1",
    "Measured Value": 9.65
  }
]

Field: viability at 48 h, 100 µM. Fill in for each record below.
1. COc1ccc(CNC(=O)CC2c3cccc(O)c3C(=O)c3c(O)cccc32)c(OC)c1
2. CCCCCCCCCCCCNC(=O)CC1c2cccc(O)c2C(=O)c2c(O)cccc21
3. O=C(O)CC1c2cccc(O)c2C(=O)c2c(O)cccc21
4. O=C1c2c(O)cccc2Cc2cccc(O)c21 [ANTHRALIN]

1: 0.05; 2: 1.22; 3: 41.2; 4: 1.7

Any idea what viability at 48 h, 100 µM was measured for CCOC(=O)CC1c2cccc(O)c2C(=O)c2c(O)cccc21 ? 6.5

---

# Test Name: Antioxidant activity assessed as increase of DPPH free radical scavenging activity by measuring reducing activity at 100 uM after 60 mins by spectrophotometry
# Assay type: physicochemical
# Condition Details: 1 h
Measured Quantity: Activity

Below, each entry is followed by its recorded Activity result.
[
  {
    "Molecule": "NCCCCNCCCN",
    "Activity": "Not Active"
  },
  {
    "Molecule": "O=C(CC1c2cccc(O)c2C(=O)c2c(O)cccc21)NCCc1ccc(O)c(O)c1",
    "Activity": "Not Active"
  },
  {
    "Molecule": "CC(C)(C)OC(=O)NCCCN(CCCCN(CCCNC(=O)CC1c2cccc(O)c2C(=O)c2c(O)cccc21)C(=O)OC(C)(C)C)C(=O)OC(C)(C)C",
    "Activity": "Not Active"
  },
  {
    "Molecule": "COc1ccc(CNC(=O)CC2c3cccc(O)c3C(=O)c3c(O)cccc32)c(OC)c1",
    "Activity": "Not Active"
  },
  {
    "Molecule": "CC(C)(C)OC(=O)CC1c2cccc(O)c2C(=O)c2c(O)cccc21",
    "Activity": "Active"
  }
]

# return Activity for each item in the list
1. O=C(O)CC1c2cccc(O)c2C(=O)c2c(O)cccc21
2. O=C(CC1c2cccc(O)c2C(=O)c2c(O)cccc21)NCc1ccccc1
3. CC(Cc1ccc(O)c(O)c1)C(C)Cc1ccc(O)c(O)c1 (centres undefined) [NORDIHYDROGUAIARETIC ACID]
4. CC(C)(C)OC(=O)NCCCCNC(=O)CC1c2cccc(O)c2C(=O)c2c(O)cccc21

1: Active; 2: Active; 3: Not Active; 4: Not Active

---

# Test system: Glycine max
# Test Name: Inhibition of soybean LOX assessed as reduction in conversion of sodium linoleate to 13-hydroperoxylinoleic acid at 100 uM by UV analysis
Give criterion met when the value for inhibition is at least 30%. Give criterion not met when it is less.

[
  {
    "Mol": "O=C(CC1c2cccc(O)c2C(=O)c2c(O)cccc21)NCCc1ccc(O)c(O)c1",
    "Target Under Test": "Glycine max",
    "Class": "criterion met"
  }
]

Does CCCCCCCCCCCCNC(=O)CC1c2cccc(O)c2C(=O)c2c(O)cccc21 have a reported inhibition of at least 30%? criterion met

Test whether the compound NCCCCN(CCCN)C(=O)CC1c2cccc(O)c2C(=O)c2c(O)cccc21.O=C(O)C(F)(F)F.O=C(O)C(F)(F)F records inhibition of 30% or higher. criterion not met

Record CC(C)(C)OC(=O)NCCCCNC(=O)CC1c2cccc(O)c2C(=O)c2c(O)cccc21 ; criterion: inhibition no lower than 30%. Met? criterion met

Reported inhibition at or above 30%? NCCCCNC(=O)CC1c2cccc(O)c2C(=O)c2c(O)cccc21.O=C(O)C(F)(F)F criterion met

---

# Test Name: Cytotoxicity against human HaCaT cells assessed as cell survival at 10 uM after 48 hrs by MTT assay (reference value: 95.75 +/- 2.47%)
# Format: cell-based
# Condition Details: read-out: Survival
Measured Quantity: viability at 48 h, 10 µM (%)
Answers are plain numbers, in %.

[
  {
    "Mol": "O=C(CC1c2cccc(O)c2C(=O)c2c(O)cccc21)NCCc1ccc(O)c(O)c1",
    "Output Unit": "%",
    "viability at 48 h, 10 µM": 128
  },
  {
    "Mol": "CCCCCCCCCCCCNC(=O)CC1c2cccc(O)c2C(=O)c2c(O)cccc21",
    "Output Unit": "%",
    "viability at 48 h, 10 µM": 7.79
  },
  {
    "Mol": "O=C1c2c(O)cccc2Cc2cccc(O)c21",
    "Output Unit": "%",
    "viability at 48 h, 10 µM": 5.23
  },
  {
    "Mol": "COc1ccc(C(NC(=O)CC2c3cccc(O)c3C(=O)c3c(O)cccc32)c2ccc(OC)cc2)cc1",
    "Output Unit": "%",
    "viability at 48 h, 10 µM": 20.3
  },
  {
    "Mol": "COc1ccc(CNC(=O)CC2c3cccc(O)c3C(=O)c3c(O)cccc32)cc1OC",
    "Output Unit": "%",
    "viability at 48 h, 10 µM": 3
  }
]

List reported viability at 48 h, 10 µM for each of these compounds:
1. CCCCNC(=O)CC1c2cccc(O)c2C(=O)c2c(O)cccc21
2. CCOC(=O)CC1c2cccc(O)c2C(=O)c2c(O)cccc21
3. O=C(O)CC1c2cccc(O)c2C(=O)c2c(O)cccc21
4. COc1ccc(CNC(=O)CC2c3cccc(O)c3C(=O)c3c(O)cccc32)c(OC)c1

1. 24.4
2. 28.8
3. 42
4. 8.42
